Reported inhibition values are given for each entry in this list.
- tested.on: Bifunctional epoxide hydrolase 2 (Homo sapiens)
- Sequence (P34913 whole entry): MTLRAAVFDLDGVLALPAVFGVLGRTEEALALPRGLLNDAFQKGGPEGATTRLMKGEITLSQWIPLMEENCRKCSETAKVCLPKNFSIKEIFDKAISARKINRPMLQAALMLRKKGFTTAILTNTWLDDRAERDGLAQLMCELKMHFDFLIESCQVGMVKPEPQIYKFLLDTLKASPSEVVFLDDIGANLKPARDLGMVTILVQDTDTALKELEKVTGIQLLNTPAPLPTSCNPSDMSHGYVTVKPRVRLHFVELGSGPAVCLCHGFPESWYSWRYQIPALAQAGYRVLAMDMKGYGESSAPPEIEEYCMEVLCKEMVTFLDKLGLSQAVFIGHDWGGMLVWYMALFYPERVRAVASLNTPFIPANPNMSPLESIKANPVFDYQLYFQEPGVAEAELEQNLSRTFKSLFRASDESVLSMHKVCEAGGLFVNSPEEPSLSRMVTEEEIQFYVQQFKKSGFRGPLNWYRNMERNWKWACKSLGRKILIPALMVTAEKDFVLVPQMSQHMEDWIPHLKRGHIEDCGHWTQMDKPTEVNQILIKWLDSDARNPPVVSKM
- test: Inhibition of sEH (unknown origin) at 100 uM using PHOME as substrate after 40 mins by fluorescence photometric method relative to control
Field format: number, assumed %, no unit text.

Below are worked cases with known answers.
• CC(C)=C/C=C1/C(=O)Nc2ccccc21 = 95.1
• COC(=O)/C=C/c1ccc(O)c(OC)c1 = 99.2
• CC(C)=C/C=C1/C(=O)N(C)c2ccccc21 = 80.2
• O=C(/C=C/c1ccc(O)c(O)c1)O[C@@H]1C[C@](O)(C(=O)O)C[C@@H](OC(=O)/C=C/c2ccc(O)c(O)c2)[C@H]1O = 81.3
• CC(C)=C/C=C1\C(=O)N(C)c2ccccc21 = 77
• COc1ccc(/C=C/C(=O)OCC(=O)c2ccc(O)c(O)c2)cc1O = 98.3

Pending compound:
For COc1ccc(/C=C/C(=O)OCC(=O)Cc2ccc(O)c(O)c2)cc1O [CIMIRACEMATE A] the compound record lists inhibition as 104

###

- tested.on: Bifunctional epoxide hydrolase 2 (Homo sapiens)
- test: Inhibition of sEH (unknown origin) using PHOME as substrate after 40 mins by fluorescence photometric method
reported.property: pIC50
Keep it numeric: pIC50 is minus log10 of the concentration in mol/L.

- CC(C)=C/C=C1\C(=O)N(C)c2ccccc21: 5.89
- COc1ccc(/C=C/C(=O)OCC(=O)Cc2ccc(O)c(O)c2)cc1O [CIMIRACEMATE A]: 5.96
- COC(=O)/C=C/c1ccc(O)c(OC)c1: 5.74
- O=C(/C=C/c1ccc(O)c(O)c1)O[C@@H]1C[C@](O)(C(=O)O)C[C@@H](OC(=O)/C=C/c2ccc(O)c(O)c2)[C@H]1O: 5.55
- CC(C)=C/C=C1/C(=O)N(C)c2ccccc21: 6.10
- COc1ccc(/C=C/C(=O)OCC(=O)c2ccc(O)c(O)c2)cc1O: 5.80

Pending compound:
For `CC(C)=C/C=C1/C(=O)Nc2ccccc21` the compound record lists pIC50 as 6.00

Reference source: ChEMBL document CHEMBL4007474
